Test system: JNK1
Construct: gene MAPK8
Settings: concentration: 1 μM, replicates: in singlicate; n = 1;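 note: KINOMEscan kinase panel screen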
REPORTED METRIC: %Inh (%)
Please reply with the bare figure in % and do not write the unit itself.

QUERY: What value of %Inh has been recorded for this entry: CN(C)Cc1ccc(-c2ccc3c(Nc4ccc(Oc5ccccn5)cc4)ccnc3c2)o1
RESULT: 19

QUERY: Here is the next compound: O=C(Nc1cccc(-c2nn3ccccc3c2-c2ccnc(Nc3cccc(F)c3)n2)c1)c1c(F)ccc(F)c1Cl
RESULT: 11

QUERY: Here is the next compound: Cl.c1ccc(-c2ccc3c(Nc4ccc5[nH]ncc5c4)ccnc3c2)nc1
RESULT: 9

QUERY: Here is the next compound: COCCOCCOc1cc2ncc3c4ccc(C#N)cc4[nH]c3c2cc1OC
RESULT: 5

QUERY: Here is the next compound: Cl.NC(=O)c1cccc(Nc2nccc(Nc3ccc(Oc4c(Cl)cccc4Cl)c(Cl)c3)n2)c1
RESULT: 26

QUERY: Here is the next compound: Oc1cc(Nc2ccnc3cc(I)ccc23)ccc1F
RESULT: 32

QUERY: Here is the next compound: O=C(Nc1n[nH]c2nc(-c3ccc(O)cc3)ccc12)C1CC1
RESULT: 25

QUERY: Here is the next compound: CC(C)(C)c1ccc2nccc(Nc3cccc(O)c3)c2c1
RESULT: 32

QUERY: Here is the next compound: c1ccc(-c2n[nH]cc2Nc2ccnc3ccccc23)nc1
RESULT: 92.6

---

Test system: BRK
Construct: gene PTK6
Settings: concentration: 1 μM, replicates: in singlicate; n = 1
REPORTED METRIC: %Inh
Phrase the answer as number then unit, nothing more needed.

QUERY: What value of %Inh has been recorded for this entry: Nc1n[nH]c2cnc(-c3ccccc3)cc12
RESULT: 19%

QUERY: Here is the next compound: c1ccc(-c2cnc3nccnn23)cc1
RESULT: 22%

QUERY: Here is the next compound: COc1cccc(C2=C(Nc3ccc(Cl)c(C(=O)O)c3)C(=O)NC2=O)c1
RESULT: 38%

QUERY: Here is the next compound: CN1CCN(CCCNc2nccc(-c3c(-c4ccc(F)cc4)nn4cc(C(F)(F)F)ccc34)n2)CC1
RESULT: 9%

QUERY: Here is the next compound: Cc1occc1-c1ncc(OC[C@@H](N)Cc2c[nH]c3ccccc23)cc1-c1ccc2[nH]nc(C)c2c1.O=C(O)C(F)(F)F
RESULT: 7%

QUERY: Here is the next compound: O=C(Nc1cccc(-c2nn3ncccc3c2-c2ccnc(Nc3ccccc3)n2)c1)c1c(F)cccc1F
RESULT: 94.5%

QUERY: Here is the next compound: Nc1ncc(-c2ccc3nccc(-c4ccncc4)c3c2)cc1S(=O)(=O)N1CCOCC1
RESULT: 8%

QUERY: Here is the next compound: Cc1cccc(Nc2nc(N[C@H]3CCNC3)ncc2C(N)=O)c1.Cl
RESULT: 7%

QUERY: Here is the next compound: Cc1ccc(S(=O)(=O)Nc2ccc(Nc3nccc(Nc4cccc5[nH]ncc45)n3)cc2)cc1
RESULT: 34%

---

System: PRKG1
Conditions: concentration: 1 μM, replicates: in singlicate; n = 1
Label met when %Inh is strictly below 6%; at or above that, label not met.

QUERY: For this compound, is %Inh lower than 6%? O=C(Nc1cccc(Oc2ccc3nc(NC(=O)C4CC4)cn3n2)c1)c1ccccc1C(F)(F)F
RESULT: met

QUERY: Here is the next compound: O=C(Nc1ccccc1F)NC1CCN(c2ccnc(Nc3ccc(F)cc3)n2)CC1
RESULT: not met

QUERY: Here is the next compound: O=C(O)C(F)(F)F.O=C(O)C(F)(F)F.O=c1[nH]ccc2nc(N[C@@H]3CCCNC3)nc(Nc3ccc(S(=O)(=O)N4CCOCC4)cc3)c12
RESULT: not met

QUERY: Here is the next compound: Cl.NC(=O)c1cccc(Nc2nccc(Nc3ccc(Oc4c(Cl)cccc4Cl)c(Cl)c3)n2)c1
RESULT: met

QUERY: Here is the next compound: COc1ccc(Nc2nccc(NCCNC(=O)c3cc4ccccc4s3)n2)cc1
RESULT: met

QUERY: Here is the next compound: Cn1cc(-c2[nH]c3cc(NC(=O)[C@H](N)C4CCCCC4)cc4c3c2C=NNC4=O)cn1
RESULT: not met

QUERY: Here is the next compound: CSc1cccc2c(-c3ccncn3)c(-c3ccc(F)cc3)nn12
RESULT: not met
